# applied conditions: in isopropanol, 283.15 K

{"record smiles": "Nc1cccc(S(=O)(=O)c2cccc(N)c2)c1", "solubility (mole fraction)": 0.00106}

* * *

# applied conditions: in n-butanol, 308.15 K

{"record smiles": "Nc1cccc(S(=O)(=O)c2cccc(N)c2)c1", "solubility (mole fraction)": 0.00246}

* * *

# applied conditions: in n-heptanol, 298.15 K

{"record smiles": "Nc1cccc(S(=O)(=O)c2cccc(N)c2)c1", "solubility (mole fraction)": 0.00106}

* * *

# applied conditions: in n-heptanol, 283.15 K

{"record smiles": "Nc1cccc(S(=O)(=O)c2cccc(N)c2)c1", "solubility (mole fraction)": 0.000699}

* * *

# applied conditions: in isopropanol, 323.15 K

{"record smiles": "Nc1cccc(S(=O)(=O)c2cccc(N)c2)c1", "solubility (mole fraction)": 0.00611}

* * *

# applied conditions: in acetonitrile, 303.15 K
value kind: solubility (mole fraction)

{"record smiles": "Nc1cccc(S(=O)(=O)c2cccc(N)c2)c1", "quantitative result": 0.0127}

* * *

# applied conditions: in DMF, 303.15 K
value kind: solubility (mole fraction)

{"record smiles": "Nc1cccc(S(=O)(=O)c2cccc(N)c2)c1", "value kind": "solubility (mole fraction)", "quantitative result": 0.12}

* * *

# applied conditions: in ethyl acetate, 308.15 K

{"record smiles": "Nc1cccc(S(=O)(=O)c2cccc(N)c2)c1", "solubility (mole fraction)": 0.0278}

* * *

# applied conditions: in ethanol, 328.15 K

{"record smiles": "Nc1cccc(S(=O)(=O)c2cccc(N)c2)c1", "solubility (mole fraction)": 0.00837}

* * *

# applied conditions: in DMF, 298.15 K
value kind: solubility (mole fraction)

{"record smiles": "Nc1cccc(S(=O)(=O)c2cccc(N)c2)c1", "quantitative result": 0.11}

* * *

# applied conditions: in 1,4-dioxane, 303.15 K

{"record smiles": "Nc1cccc(S(=O)(=O)c2cccc(N)c2)c1", "solubility (mole fraction)": 0.0083}

* * *

# applied conditions: in ethylene glycol, 318.15 K

{"record smiles": "Nc1cccc(S(=O)(=O)c2cccc(N)c2)c1", "solubility (mole fraction)": 0.0144}

* * *

# applied conditions: in ethylene glycol, 288.15 K

{"record smiles": "Nc1cccc(S(=O)(=O)c2cccc(N)c2)c1", "solubility (mole fraction)": 0.00515}

* * *

# applied conditions: in water, 298.15 K

{"record smiles": "Nc1cccc(S(=O)(=O)c2cccc(N)c2)c1", "solubility (mole fraction)": "3.32e-05"}

* * *

# applied conditions: in n-butanol, 303.15 K

{"record smiles": "Nc1cccc(S(=O)(=O)c2cccc(N)c2)c1", "solubility (mole fraction)": 0.00205}

* * *

# applied conditions: in acetonitrile, 328.15 K

{"record smiles": "Nc1cccc(S(=O)(=O)c2cccc(N)c2)c1", "solubility (mole fraction)": 0.033}

* * *

# applied conditions: in methanol, 283.15 K
value kind: solubility (mole fraction)

{"record smiles": "Nc1cccc(S(=O)(=O)c2cccc(N)c2)c1", "quantitative result": 0.00319}

* * *

# applied conditions: in n-heptanol, 293.15 K

{"record smiles": "Nc1cccc(S(=O)(=O)c2cccc(N)c2)c1", "solubility (mole fraction)": 0.000898}

* * *

# applied conditions: in acetonitrile, 308.15 K
value kind: solubility (mole fraction)

{"record smiles": "Nc1cccc(S(=O)(=O)c2cccc(N)c2)c1", "value kind": "solubility (mole fraction)", "quantitative result": 0.0151}

* * *

# applied conditions: in water, 323.15 K

{"record smiles": "Nc1cccc(S(=O)(=O)c2cccc(N)c2)c1", "solubility (mole fraction)": 0.000145}

* * *

# applied conditions: in cyclohexane, 293.15 K

{"record smiles": "Nc1cccc(S(=O)(=O)c2cccc(N)c2)c1", "solubility (mole fraction)": "5.1e-06"}

* * *

# applied conditions: in DMF, 318.15 K

{"record smiles": "Nc1cccc(S(=O)(=O)c2cccc(N)c2)c1", "solubility (mole fraction)": 0.162}

* * *

# applied conditions: in water, 303.15 K

{"record smiles": "Nc1cccc(S(=O)(=O)c2cccc(N)c2)c1", "solubility (mole fraction)": "4.29e-05"}

* * *

# applied conditions: in isopropanol, 328.15 K

{"record smiles": "Nc1cccc(S(=O)(=O)c2cccc(N)c2)c1", "solubility (mole fraction)": 0.00731}

* * *

# applied conditions: in ethyl acetate, 283.15 K
value kind: solubility (mole fraction)

{"record smiles": "Nc1cccc(S(=O)(=O)c2cccc(N)c2)c1", "value kind": "solubility (mole fraction)", "quantitative result": 0.0146}

* * *

# applied conditions: in acetonitrile, 293.15 K

{"record smiles": "Nc1cccc(S(=O)(=O)c2cccc(N)c2)c1", "solubility (mole fraction)": 0.0087}

* * *

# applied conditions: in acetonitrile, 283.15 K

{"record smiles": "Nc1cccc(S(=O)(=O)c2cccc(N)c2)c1", "solubility (mole fraction)": 0.00609}

* * *

# applied conditions: in ethanol, 298.15 K

{"record smiles": "Nc1cccc(S(=O)(=O)c2cccc(N)c2)c1", "solubility (mole fraction)": 0.00349}

* * *

# applied conditions: in n-propanol, 298.15 K
value kind: solubility (mole fraction)

{"record smiles": "Nc1cccc(S(=O)(=O)c2cccc(N)c2)c1", "result": 0.00214}

* * *

# applied conditions: in ethyl acetate, 293.15 K
value kind: solubility (mole fraction)

{"record smiles": "Nc1cccc(S(=O)(=O)c2cccc(N)c2)c1", "quantitative result": 0.0184}

* * *

# applied conditions: in isobutanol, 298.15 K
value kind: solubility (mole fraction)

{"record smiles": "Nc1cccc(S(=O)(=O)c2cccc(N)c2)c1", "result": 0.000952}

* * *

# applied conditions: in n-propanol, 293.15 K

{"record smiles": "Nc1cccc(S(=O)(=O)c2cccc(N)c2)c1", "solubility (mole fraction)": 0.00177}

* * *

# applied conditions: in water, 318.15 K

{"record smiles": "Nc1cccc(S(=O)(=O)c2cccc(N)c2)c1", "solubility (mole fraction)": 0.000106}

* * *

# applied conditions: in methanol, 313.15 K

{"record smiles": "Nc1cccc(S(=O)(=O)c2cccc(N)c2)c1", "solubility (mole fraction)": 0.00905}

* * *

# applied conditions: in isopropanol, 308.15 K

{"record smiles": "Nc1cccc(S(=O)(=O)c2cccc(N)c2)c1", "solubility (mole fraction)": 0.00326}

* * *

# applied conditions: in water, 288.15 K
value kind: solubility (mole fraction)

{"record smiles": "Nc1cccc(S(=O)(=O)c2cccc(N)c2)c1", "value kind": "solubility (mole fraction)", "quantitative result": "1.9e-05"}

* * *

# applied conditions: in n-propanol, 308.15 K
value kind: solubility (mole fraction)

{"record smiles": "Nc1cccc(S(=O)(=O)c2cccc(N)c2)c1", "quantitative result": 0.00301}

* * *

# applied conditions: in ethanol, 318.15 K
value kind: solubility (mole fraction)

{"record smiles": "Nc1cccc(S(=O)(=O)c2cccc(N)c2)c1", "result": 0.00661}

* * *

# applied conditions: in n-heptanol, 288.15 K

{"record smiles": "Nc1cccc(S(=O)(=O)c2cccc(N)c2)c1", "solubility (mole fraction)": 0.000776}

* * *

# applied conditions: in acetonitrile, 288.15 K
value kind: solubility (mole fraction)

{"record smiles": "Nc1cccc(S(=O)(=O)c2cccc(N)c2)c1", "value kind": "solubility (mole fraction)", "quantitative result": 0.00709}

* * *

# applied conditions: in methanol, 308.15 K
value kind: solubility (mole fraction)

{"record smiles": "Nc1cccc(S(=O)(=O)c2cccc(N)c2)c1", "value kind": "solubility (mole fraction)", "quantitative result": 0.00744}

* * *

# applied conditions: in methanol, 288.15 K

{"record smiles": "Nc1cccc(S(=O)(=O)c2cccc(N)c2)c1", "solubility (mole fraction)": 0.00351}

* * *

# applied conditions: in ethyl acetate, 328.15 K
value kind: solubility (mole fraction)

{"record smiles": "Nc1cccc(S(=O)(=O)c2cccc(N)c2)c1", "quantitative result": 0.0485}

* * *

# applied conditions: in 1,4-dioxane, 318.15 K

{"record smiles": "Nc1cccc(S(=O)(=O)c2cccc(N)c2)c1", "solubility (mole fraction)": 0.0147}

* * *

# applied conditions: in methanol, 303.15 K
value kind: solubility (mole fraction)

{"record smiles": "Nc1cccc(S(=O)(=O)c2cccc(N)c2)c1", "result": 0.00604}

* * *

# applied conditions: in methanol, 318.15 K

{"record smiles": "Nc1cccc(S(=O)(=O)c2cccc(N)c2)c1", "solubility (mole fraction)": 0.0107}

* * *

# applied conditions: in ethylene glycol, 293.15 K

{"record smiles": "Nc1cccc(S(=O)(=O)c2cccc(N)c2)c1", "solubility (mole fraction)": 0.00595}

* * *

# applied conditions: in ethyl acetate, 303.15 K

{"record smiles": "Nc1cccc(S(=O)(=O)c2cccc(N)c2)c1", "solubility (mole fraction)": 0.0243}

* * *

# applied conditions: in isopropanol, 318.15 K

{"record smiles": "Nc1cccc(S(=O)(=O)c2cccc(N)c2)c1", "solubility (mole fraction)": 0.005}

Origin of values: BigSolDB 2.1
